Provenance of the data: patent US20260167703A1

Please go through the items and note down their Response (nm).
Target: DENV-4 E protein Domain III (Dengue virus serotype 4, strain Indonesia/1036/1976)
Test: BLI, mAb on AR2G biosensor, 20 ug/mL Domain III, 1200 sec
Answers are plain numbers, in nm.

The following binders have reported results that may help.
binder="DENV4-5B11 (antibody, V domains shown) VH: QSVEESGGRLVTPGTPLTLTCTVSGFSLSDSAMSWVRQAPGKGLEWIGYIYAGSGTTYYASWAKGRFTISKTSTTVDLKITSPTTEDTATYFCARATAYVGYGYGDDTFDPWGPGTLVTVSS VL: AYDMTQTPASVEVAVGGTVTIKCQASQSISSYLSWYQQKPGQRPKLLIYRASTLASGVSSRFKGSGSGTEFTLTISGVQCDDAATYYCQQGYSNSDVDNVFGGGTEVVVK" test_value=0.02
binder="DENV4-7F2 (antibody, V domains shown) VH: QSVEESGGRLVTPGTPLTLTCTVSGIDLSYYAMGWVRQAPGEGLECIGFIDTGDSAYYASWAKGRFTISKTSSTTVDLKITSPTPEDTATYFCGRSLSSYYDWDAFDPWGPGTLVTVSS VL: AYDMTQTPASVEVAVGGTVTINCQASQTIGNLLAWYQQKPGQRPKLLIYRASTLASGVPSRFKGSGSGTQFTLTISGVECADAATYYCQQGASANDIDNSFGGGTAVVVK" test_value=-0.005
binder="DENV4-10A11 (antibody, V domains shown) VH: QSVEESGGRLVTPGTPLTLTCTVSGINLSFYAMGWVRQAPGKGLECVGFIDTDNSAYYASWAKGRFTISKTSTTVDLKITSPTTEDTATYFCARSLSSFYDWDAFDPWGPGTLVTVSS VL: AYDMTQTPASVEVAVGGTVTIKCLASQSISNLLAWYQQKPGQRPKLLIYRASTLASGVPSRFKGSGSGTQFTLTISGVECADAATYYCQQGASNSDIDNAFGGGTEVVVK" test_value=0.012

// switching to the query binder
Param item = DENV4-8C7 (antibody, V domains shown) VH: QSVEESGGRLVTPGTPLTLTCTVSGIDLSSYEMGWVRQAPGKGLEWIGIIFPSGTIYYANWAKGRFTISKTSTTVDLKITSPTTEDTATYFCGRHGGSLYLNIWGPGTLVTVSL VL: AQVLTQTPSPVSAAVGGTVTINCQASQSVYVNRNLAWYQQKPGQPPKVLIYEASKLASGVPSRFKGSGSGTQFTLTISGVQCDDAATYYCQGEFGCSSADCIAFGGGTEVVVK ; retrieve measured Response (nm).
-0.014
